Cited source: patent US9475775B2

Target: human TLR8 (Homo sapiens (Human), UniProt Q9NR97)
Sequence (Q9NR97 27-1041): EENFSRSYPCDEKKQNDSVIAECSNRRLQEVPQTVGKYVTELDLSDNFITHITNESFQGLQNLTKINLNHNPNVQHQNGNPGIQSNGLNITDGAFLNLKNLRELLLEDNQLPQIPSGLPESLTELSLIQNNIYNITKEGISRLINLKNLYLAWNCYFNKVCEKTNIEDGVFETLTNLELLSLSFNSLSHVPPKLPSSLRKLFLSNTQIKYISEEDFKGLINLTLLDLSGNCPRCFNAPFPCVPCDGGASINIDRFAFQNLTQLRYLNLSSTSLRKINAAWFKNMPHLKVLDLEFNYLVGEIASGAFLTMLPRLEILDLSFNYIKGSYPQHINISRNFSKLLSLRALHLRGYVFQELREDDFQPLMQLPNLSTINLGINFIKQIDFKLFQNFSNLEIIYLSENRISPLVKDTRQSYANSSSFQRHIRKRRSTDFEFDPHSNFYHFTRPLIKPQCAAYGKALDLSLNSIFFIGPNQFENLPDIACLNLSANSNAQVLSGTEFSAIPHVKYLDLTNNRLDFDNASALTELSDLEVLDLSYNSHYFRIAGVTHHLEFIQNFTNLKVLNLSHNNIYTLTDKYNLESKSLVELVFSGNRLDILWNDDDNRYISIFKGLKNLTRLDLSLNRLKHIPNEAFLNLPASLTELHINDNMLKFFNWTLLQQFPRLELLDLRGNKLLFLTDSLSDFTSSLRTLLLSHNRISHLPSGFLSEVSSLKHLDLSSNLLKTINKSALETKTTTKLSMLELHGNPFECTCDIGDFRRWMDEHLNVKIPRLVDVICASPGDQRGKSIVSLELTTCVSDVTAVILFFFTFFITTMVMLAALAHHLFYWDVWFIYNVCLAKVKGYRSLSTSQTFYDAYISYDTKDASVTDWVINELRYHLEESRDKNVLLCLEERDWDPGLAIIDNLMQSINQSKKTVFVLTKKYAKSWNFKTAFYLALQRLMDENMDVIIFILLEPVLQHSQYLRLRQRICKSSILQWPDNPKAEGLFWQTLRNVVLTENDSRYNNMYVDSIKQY
Experiment: HEK-Blue human TLR8 cells, NF-κB SEAP reporter assay
Details: stimulation for 20 hours
Property: pEC50; scope: individual compounds
Answer as the number alone; pEC50 is minus log10 of concentration in mol/L.

CCCN(CCC)C(=O)C1=Cc2ccc(C(=O)Nc3cncc(/C=C\CN)c3)cc2N=C(N)C1 : 8.22
CCCN(CCC)C(=O)C1=Cc2ccc(C(=O)Nc3ccc(CCCCN)nc3)cc2N=C(N)C1 : 8.10
CCCN(CCC)C(=O)C1=Cc2ccc(C(=O)Nc3ccc(F)c(CCN)c3)cc2N=C(N)C1 : 7.96
CCCN(CCC)C(=O)C1=Cc2ccc(C(=O)Nc3cncc(CCc4ccccc4)c3)cc2N=C(N)C1 : 8.10
CCCN(CCC)C(=O)C1=Cc2ccc(C(=O)Nc3ccc(CN)nc3)cc2N=C(N)C1 : 8.52
CCCN(CCC)C(=O)C1=Cc2ccc(C(=O)Nc3ccc(CO)nc3)cc2N=C(N)C1 : 7.82

Look up pEC50 for this compound: CCCN(CCC)C(=O)C1=Cc2ccc(C(=O)Nc3ccc(CCN)cc3)cc2N=C(N)C1
7.74

Moving on to the next compound: CCCN(CCC)C(=O)C1=Cc2ccc(C(=O)Nc3cncc(OCCCCCN)c3)cc2N=C(N)C1
8.00

# repeat for CCCN(CCC)C(=O)C1=Cc2ccc(C(=O)Nc3ccc(CCCN)nc3)cc2N=C(N)C1
8.00

Same question, CCCN(CCC)C(=O)C1=Cc2ccc(C(=O)Nc3ccccc3)cc2N=C(N)C1 this time
8.15

What would you report for CCCN(CCC)C(=O)C1=Cc2ccc(C(=O)Nc3cc(C)cc(C)c3)cc2N=C(N)C1 ?
9.00

Could you do the same for CCCN(CCC)C(=O)C1=Cc2ccc(C(=O)Nc3cncnc3)cc2N=C(N)C1 , please?
9.00

Queued: CCCN(CCC)C(=O)C1=Cc2ccc(C(=O)Nc3cncc(CCN)c3)cc2N=C(N)C1
7.77

====

Examples of compounds with documented pEC50 follow.
Biological target: UniProt Q9NYK1
Assay: HEK-Blue human TLR7 cells, NF-κB SEAP reporter assay
Assay type: cell-based
Conditions: stimulation for 20 hours
Please report pEC50 as the negative decimal logarithm of the molar concentration, giving only the number.

Item: CCCN(CC1CC1)C(=O)C1=Cc2ccc(C(=O)Nc3cccc(C)c3)cc2N=C(N)C1 Test system: UniProt Q9NYK1 Read-out: pEC50 Value: ?
4.70

What about this compound? CCCN(CCC)C(=O)C1=Cc2ccc(C(=O)Nc3cncc(OCC)c3)cc2N=C(N)C1
4.92

====

Target: human TLR8 (Homo sapiens (Human))
Assay: HEK-Blue human TLR8 cells, NF-κB SEAP reporter assay
Conditions: stimulation for 20 hours
Experimental: For TLR8 and TLR7 activity testing, HEK-Blue human TLR8 or TLR7 cells (Invivogen, San Diego, Calif., USA) are used, respectively. These cells are designed for studying the stimulation of human TLR8 or TLR7 by monitoring the activation of NF-κB. […] The cell culture supernatant SEAP reporter activity was determined using Quanti Blue kit (Invivogen, San Diego, Ca, USA) at a wavelength of 640 nm, a detection medium that turns purple/blue in the presence of alkaline phosphatase. […]
recorded endpoint: pEC50
Formally, pEC50 is defined as -log10 of the concentration c, with c in mol/L.

Look up pEC50 for this molecule: CCCN(CCC)C(=O)C1=Cc2ccc(C(=O)Nc3cncc(OC)c3)cc2N=C(N)C1
9.00

Try this molecule too: CCCN(CCC)C(=O)C1=Cc2ccc(C(=O)Nc3ccc(CCCCCN)cc3)cc2N=C(N)C1
7.82

====

Molecular target: human TLR7 (Homo sapiens (Human), UniProt Q9NYK1)
Sequence (Q9NYK1 27-1049): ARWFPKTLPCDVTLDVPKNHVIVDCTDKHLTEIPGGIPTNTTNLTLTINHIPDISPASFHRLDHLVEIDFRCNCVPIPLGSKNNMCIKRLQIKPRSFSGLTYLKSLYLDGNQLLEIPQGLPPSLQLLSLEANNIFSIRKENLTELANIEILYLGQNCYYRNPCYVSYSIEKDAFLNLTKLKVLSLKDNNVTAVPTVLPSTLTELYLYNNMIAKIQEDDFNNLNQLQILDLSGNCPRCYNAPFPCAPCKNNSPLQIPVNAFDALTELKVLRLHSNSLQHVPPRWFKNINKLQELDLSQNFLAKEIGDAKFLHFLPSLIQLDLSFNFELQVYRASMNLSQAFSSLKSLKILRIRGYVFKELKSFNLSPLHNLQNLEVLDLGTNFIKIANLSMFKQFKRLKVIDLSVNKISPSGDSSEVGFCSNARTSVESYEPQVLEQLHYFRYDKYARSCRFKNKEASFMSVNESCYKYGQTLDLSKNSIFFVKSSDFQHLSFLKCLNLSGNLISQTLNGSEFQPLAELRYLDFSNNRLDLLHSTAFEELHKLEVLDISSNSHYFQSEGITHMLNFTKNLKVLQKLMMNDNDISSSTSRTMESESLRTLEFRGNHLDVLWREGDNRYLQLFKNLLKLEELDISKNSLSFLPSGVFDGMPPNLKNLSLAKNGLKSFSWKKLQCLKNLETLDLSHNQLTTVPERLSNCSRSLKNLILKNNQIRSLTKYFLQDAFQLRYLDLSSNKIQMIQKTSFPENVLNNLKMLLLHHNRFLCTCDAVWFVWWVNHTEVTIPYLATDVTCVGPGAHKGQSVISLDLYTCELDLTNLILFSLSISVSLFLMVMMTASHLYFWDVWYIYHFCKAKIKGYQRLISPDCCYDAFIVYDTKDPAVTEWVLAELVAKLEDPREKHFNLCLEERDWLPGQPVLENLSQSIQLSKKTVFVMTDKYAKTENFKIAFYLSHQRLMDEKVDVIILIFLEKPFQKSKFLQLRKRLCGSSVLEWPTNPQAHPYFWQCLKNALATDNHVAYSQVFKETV
Assay: HEK-Blue human TLR7 cells, NF-κB SEAP reporter assay
Conditions: stimulation for 20 hours
pEC50: −log10 of the molar value.
recorded endpoint: pEC50

# returns recorded pEC50 (system: human TLR7 (Homo sapiens (Human), UniProt Q9NYK1)) for CCCN(CCC)C(=O)C1=Cc2ccc(C(=O)Nc3cncc(C)c3)cc2N=C(N)C1 [Example 18]
4.47

What about this compound? CCCN(CCC)C(=O)C1=Cc2ccc(C(=O)Nc3cccc(OC)c3)cc2N=C(N)C1 [Example 30]
< 4.00

Same question for CCCN(CCC)C(=O)C1=Cc2ccc(C(=O)Nc3cccc(CC)c3)cc2N=C(N)C1 [Example 29] please.
< 4.00

Would you kindly repeat that for CCCN(CCC)C(=O)C1=Cc2ccc(C(=O)Nc3cncc(CCc4ccc(CN)cc4)c3)cc2N=C(N)C1 [Example 71] ?
< 4.00

Also need CCCN(CCC)C(=O)C1=Cc2ccc(C(=O)Nc3cncc(CN)c3)cc2N=C(N)C1 [Example 33] , thanks.
< 4.00

Likewise for CCCN(CCC)C(=O)C1=Cc2ccc(C(=O)Nc3cccc(OCCOCCN)c3)cc2N=C(N)C1 [Example 45] ?
< 4.00

Thanks! And CCCN(CCC)C(=O)C1=Cc2ccc(C(=O)Nc3ccc(F)cc3)cc2N=C(N)C1 [Example 13] ?
< 4.00

Try CCCN(CCC)C(=O)C1=Cc2ccc(C(=O)Nc3cccc(Cl)c3)cc2N=C(N)C1 [Example 32] next.
< 4.00

And for CCCN(CCCO)C(=O)C1=Cc2ccc(C(=O)Nc3cccnc3)cc2N=C(N)C1 [Example 39] ?
< 4.00

Further, for CCCN(CCC)C(=O)C1=Cc2ccc(C(=O)Nc3ccc(CCN)cc3)cc2N=C(N)C1 [Example 25] ?
< 4.00

Likewise for CCCN(CCC)C(=O)C1=Cc2ccc(C(=O)Nc3cncc(/C=C\CN)c3)cc2N=C(N)C1 [Example 52] ?
< 4.00

Entry CCCN(CCC)C(=O)C1=Cc2ccc(C(=O)Nc3cncc(CNC(=O)OCc4ccccc4)c3)cc2N=C(N)C1 [Example 67] please
< 4.00

Also, CCCN(CCC)C(=O)C1=Cc2ccc(C(=O)Nc3ccnnc3)cc2N=C(N)C1 [Example 34] please.
< 4.00

Same again, this time with CCCN(CCC(F)(F)F)C(=O)C1=Cc2ccc(C(=O)Nc3cccc(C)c3)cc2N=C(N)C1 [Example 51]
4.66

Then what about the compound CCCN(CCC)C(=O)C1=Cc2ccc(C(=O)Nc3ncco3)cc2N=C(N)C1 [Example 38] ?
4.35

====

The compounds listed here are annotated with their EC50.
Target: human TLR8 (Homo sapiens (Human), UniProt Q9NR97)
Assay: HEK-Blue human TLR8 cells, NF-κB SEAP reporter assay
Type: cell-based
Conditions: stimulation for 20 hours
Answer format: numeric, nM implied, no suffix.

See these solved cases before continuing.
CCCN(CCC)C(=O)C1=Cc2ccc(C(=O)Nc3cccc(CCN)c3)cc2N=C(N)C1 [Example 54] : 3
CCCN(CCC)C(=O)C1=Cc2ccc(C(=O)Nc3cccc(CCCN)c3)cc2N=C(N)C1 : 3
CCCN(CCCO)C(=O)C1=Cc2ccc(C(=O)Nc3cccc(C)c3)cc2N=C(N)C1 : 2
CCCN(CCCOCCCN)C(=O)C1=Cc2ccc(C(=O)Nc3cccc(C)c3)cc2N=C(N)C1 : 10
CCCN(CCC)C(=O)C1=Cc2ccc(C(=O)Nc3cncc(CCCN)c3)cc2N=C(N)C1 : 10
CCCN(CCC)C(=O)C1=Cc2ccc(C(=O)Nc3cncc(CCCCCCN)c3)cc2N=C(N)C1 : 27
CCCN(CCC)C(=O)C1=Cc2ccc(C(=O)Nc3cccc(C)c3)cc2N=C(N)C1 : 1
CCCN(CCC)C(=O)C1=Cc2ccc(C(=O)Nc3cccc(F)c3)cc2N=C(N)C1 : 5
CCCCN(CCO)C(=O)C1=Cc2ccc(C(=O)Nc3cccc(C)c3)cc2N=C(N)C1 : 6
CCCN(CCC)C(=O)C1=Cc2ccc(C(=O)Nc3ccc(OCC)nc3)cc2N=C(N)C1 : 1

What value of EC50 on human TLR8 (Homo sapiens (Human), UniProt Q9NR97) does CCCN(CCC)C(=O)C1=Cc2ccc(C(=O)Nc3ccc(CCCN)cc3)cc2N=C(N)C1 have?
5

Then CCCN(CCC)C(=O)C1=Cc2ccc(C(=O)Nc3cncc(CO)c3)cc2N=C(N)C1 ?
8

One more compound: CCCN(CCC)C(=O)C1=Cc2ccc(C(=O)Nc3ccc(F)cc3)cc2N=C(N)C1
7

Quick one: CCCN(CCC)C(=O)C1=Cc2ccc(C(=O)Nc3cccc(CCCCN)c3)cc2N=C(N)C1
7

Quick one: CCCN(CCC)C(=O)C1=Cc2ccc(C(=O)Nc3cncc(/C=C/CN)c3)cc2N=C(N)C1
8

Same question, CCCN(CCC)C(=O)C1=Cc2ccc(C(=O)Nc3cccc(C(=O)N4CCCC4)c3)cc2N=C(N)C1 this time
2

Another compound to check: C#CCN(CCC)C(=O)C1=Cc2ccc(C(=O)Nc3cccc(C)c3)cc2N=C(N)C1
6

Same lookup for CCCN(CCC)C(=O)C1=Cc2ccc(C(=O)Nc3cncc(C(=O)N4CCCC4)c3)cc2N=C(N)C1 , please.
14

Now consider CCCN(CCC)C(=O)C1=Cc2ccc(C(=O)Nc3cncc(C#CCN)c3)cc2N=C(N)C1 .
16
